Measured IC50, listed per entry for reference.
systemTested: UniProtKB P29477
Sequence (P29477 whole entry): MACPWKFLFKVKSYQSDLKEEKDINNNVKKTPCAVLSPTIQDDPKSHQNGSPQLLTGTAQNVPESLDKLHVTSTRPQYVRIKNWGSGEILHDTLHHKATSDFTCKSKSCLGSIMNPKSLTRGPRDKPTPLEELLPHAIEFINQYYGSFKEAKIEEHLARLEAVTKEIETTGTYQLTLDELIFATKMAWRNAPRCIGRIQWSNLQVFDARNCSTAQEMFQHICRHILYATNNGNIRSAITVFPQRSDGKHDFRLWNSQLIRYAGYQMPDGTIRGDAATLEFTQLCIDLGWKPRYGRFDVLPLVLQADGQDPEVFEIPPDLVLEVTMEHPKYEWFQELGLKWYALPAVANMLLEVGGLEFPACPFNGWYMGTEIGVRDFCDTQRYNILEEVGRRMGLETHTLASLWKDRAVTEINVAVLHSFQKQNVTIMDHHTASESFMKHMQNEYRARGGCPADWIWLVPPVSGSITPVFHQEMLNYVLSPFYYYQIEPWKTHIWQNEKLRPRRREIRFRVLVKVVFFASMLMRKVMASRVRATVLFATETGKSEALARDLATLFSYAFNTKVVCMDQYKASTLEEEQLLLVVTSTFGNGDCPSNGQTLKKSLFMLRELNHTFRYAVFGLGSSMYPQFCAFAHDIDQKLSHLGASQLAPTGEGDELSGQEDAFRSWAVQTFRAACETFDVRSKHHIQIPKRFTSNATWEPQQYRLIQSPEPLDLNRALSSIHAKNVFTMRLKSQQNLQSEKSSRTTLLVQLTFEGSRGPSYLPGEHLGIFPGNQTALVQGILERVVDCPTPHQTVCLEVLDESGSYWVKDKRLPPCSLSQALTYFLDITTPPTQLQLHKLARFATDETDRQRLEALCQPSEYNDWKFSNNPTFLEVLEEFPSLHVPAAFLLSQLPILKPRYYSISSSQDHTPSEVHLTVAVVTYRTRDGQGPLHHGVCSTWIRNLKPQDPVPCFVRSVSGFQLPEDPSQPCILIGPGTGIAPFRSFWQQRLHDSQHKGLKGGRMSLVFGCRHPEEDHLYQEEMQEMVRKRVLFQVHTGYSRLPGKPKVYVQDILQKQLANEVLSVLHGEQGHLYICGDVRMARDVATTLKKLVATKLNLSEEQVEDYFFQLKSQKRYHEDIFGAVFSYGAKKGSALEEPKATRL
metric: IC50 (nM)

• NC1=NCC(CBr)O1 (stereo not drawn) = 500
• N=C(NCCC[C@H](N)C(=O)O)N[N+](=O)[O-] = 80000
• CCC1CN=C(N)O1 (stereo not drawn) = 280
• CCCCC[C@@H]1N=C(N)O[C@H]1C = 500
• NC1=NCCO1 = 7900
• C[C@H]1CC(=N)N[C@@H]2[C@H](Cl)[C@@H]21 = 3
• CC[C@@H]1OC(N)=N[C@H]1C = 120
• CC[C@@H]1N=C(N)O[C@H]1CC = 56
